test system: LCLC-97TM1; assay: relative viability (nuclei count vs DMSO), 5 days (fraction); higher = more cells survive; details: first compound 0.4 µM
measuredEndpoint: relative viability
Form: value (number only, do not type unit).

Query: I would be grateful if you could share the reported relative viability for C[C@@H]1CN(CC(=O)Nc2ccc3c(c2)Cc2cccc(-c4cc(=O)cc(N5CCOCC5)o4)c2S3)C[C@H](C)O1 + Nc1ncn([C@H]2C[C@H](O)[C@@H](CO)O2)c(=O)n1 [Decitabine] (partner 2 µM) .
Result: 0.279

Query: Same for Clc1ccc(Nc2nnc(Cc3ccncc3)c3ccccc23)cc1 [Vatalanib] + C[C@@H](Oc1cc(-c2cnn(C3CCNCC3)c2)cnc1N)c1c(Cl)ccc(F)c1Cl [Crizotinib] (partner 1 µM)
Result: 0.447

Query: Same for C[C@@H]1CN(CC(=O)Nc2ccc3c(c2)Cc2cccc(-c4cc(=O)cc(N5CCOCC5)o4)c2S3)C[C@H](C)O1 + CS(=O)(=O)CCNCc1ccc(-c2ccc3ncnc(Nc4ccc(OCc5cccc(F)c5)c(Cl)c4)c3c2)o1 [Lapatinib] (partner 2 µM)
Result: 0.867

Query: Same for Clc1ccc(Nc2nnc(Cc3ccncc3)c3ccccc23)cc1 [Vatalanib] + CS(=O)(=O)CCNCc1ccc(-c2ccc3ncnc(Nc4ccc(OCc5cccc(F)c5)c(Cl)c4)c3c2)o1 [Lapatinib] (partner 2 µM)
Result: 0.841

====

tested on: NCI-H1915; experiment: relative viability (nuclei count vs DMSO), 5 days (fraction); higher = more cells survive; settings: first compound 0.04 µM
measuredEndpoint: relative viability

Query: I would be grateful if you could share the reported relative viability for COc1cc(N2CCC(C(N)=O)CC2)ccc1Nc1nc(N)c(Cl)c(Nc2ccccc2S(=O)(=O)C(C)C)n1 [HG-5-88-01] + CS(=O)(=O)N1CCN(Cc2cc3nc(-c4cccc5[nH]ncc45)nc(N4CCOCC4)c3s2)CC1 [Pictilisib] (partner 1 µM) .
Result: 0.92

Query: Same for Clc1ccc(Nc2nnc(Cc3ccncc3)c3ccccc23)cc1 [Vatalanib] + COc1cc2c(Oc3ccc(NC(=O)C4(C(=O)Nc5ccc(F)cc5)CC4)cc3F)ccnc2cc1OCCCN1CCOCC1 [Foretinib] (partner 0.25 µM)
Result: 1.09

Query: Same for Clc1ccc(Nc2nnc(Cc3ccncc3)c3ccccc23)cc1 [Vatalanib] + CC(=O)c1c(C)c2cnc(Nc3ccc(N4CCNCC4)cn3)nc2n(C2CCCC2)c1=O [Palbociclib] (partner 0.5 µM)
Result: 0.533

Query: Same for C[C@@H]1CN(CC(=O)Nc2ccc3c(c2)Cc2cccc(-c4cc(=O)cc(N5CCOCC5)o4)c2S3)C[C@H](C)O1 + O=C(c1cc(Cc2n[nH]c(=O)c3ccccc23)ccc1F)N1CCN(C(=O)C2CC2)CC1 [Olaparib] (partner 8 µM)
Result: 0.25

====

test system: NCI-H1355; assay: relative viability (nuclei count vs DMSO), 5 days (fraction); higher = more cells survive; details: first compound 0.8 µM
Please respond with yes (1) when measured relative viability is strictly beneath 1, and with no (0) in all other cases.

Query: For CCCCCCCCCCCC1=C(O)C(=O)C=C(O)C1=O [Embelin] + C[C@@H](Oc1cc(-c2cnn(C3CCNCC3)c2)cnc1N)c1c(Cl)ccc(F)c1Cl [Crizotinib] (partner 1 µM) , is the recorded relative viability below the cut-off of 1?
Result: no (0)

Query: Same for CCCCCCCCCCCC1=C(O)C(=O)C=C(O)C1=O [Embelin] + O=C(CCCCCCC(=O)Nc1ccccc1)NO [Vorinostat] (partner 1 µM)
Result: yes (1)

Query: Same for CCCCCCCCCCCC1=C(O)C(=O)C=C(O)C1=O [Embelin] + CC(C)C[C@H](NC(=O)[C@H](Cc1ccccc1)NC(=O)c1cnccn1)B(O)O [Bortezomib] (partner 0.002 µM)
Result: no (0)

Query: Same for CCCCCCCCCCCC1=C(O)C(=O)C=C(O)C1=O [Embelin] + Cc1nc(Nc2ncc(C(=O)Nc3c(C)cccc3Cl)s2)cc(N2CCN(CCO)CC2)n1 [Dasatinib] (partner 0.075 µM)
Result: yes (1)

Query: Same for CCCCCCCCCCCC1=C(O)C(=O)C=C(O)C1=O [Embelin] + CS(=O)(=O)CCNCc1ccc(-c2ccc3ncnc(Nc4ccc(OCc5cccc(F)c5)c(Cl)c4)c3c2)o1 [Lapatinib] (partner 2 µM)
Result: no (0)

Query: Same for CCCCCCCCCCCC1=C(O)C(=O)C=C(O)C1=O [Embelin] + CC(=O)c1c(C)c2cnc(Nc3ccc(N4CCNCC4)cn3)nc2n(C2CCCC2)c1=O [Palbociclib] (partner 0.5 µM)
Result: yes (1)
